Tested on: A375-XP cells (Vemurafenib-resistant)
Test: Kinase inhibitor library screening, PrestoBlue cell viability, 1 or 10 μM, 72 h
Details: A375 XP, 1μΜ; in %
Experimental: After 72 h of treatment, cell viability was assessed using the PrestoBlue Cell Viability Reagent (ThermoFisher Scientific). Measurements were performed with the CLARIOstar Monochromator microplate reader (BMG Labtech). Kinase inhibitor library screening. […] Drugs were added at 2 different concentrations, 1 and 10 μM, for 72 h and cell viability was assessed using the PrestoBlue Cell Viability assay. […] Each cell line was analyzed at least in duplicate. […]
observation_type: cell viability (kinase inhibitor library screening)
Form: value (number only, do not type unit).

Ask: Supply measured cell viability (kinase inhibitor library screening) of COc1cc(Nc2c(C#N)cnc3cc(OCCCN4CCN(C)CC4)c(OC)cc23)c(Cl)cc1Cl [Bosutinib (SKI-606)] in your reply.
Result: 83.7

Ask: Supply measured cell viability (kinase inhibitor library screening) of CN(C)CCOc1ccc(-c2nc(-c3ccncc3)c(-c3ccc4c(c3)CC/C4=N\O)[nH]2)cc1 [SB590885] in your reply.
Result: 71.7
